Collected log10(Ki) values appear next to each entry.
# test_target: Kappa-type opioid receptor (Homo sapiens)
# Sequence (P41145 whole entry): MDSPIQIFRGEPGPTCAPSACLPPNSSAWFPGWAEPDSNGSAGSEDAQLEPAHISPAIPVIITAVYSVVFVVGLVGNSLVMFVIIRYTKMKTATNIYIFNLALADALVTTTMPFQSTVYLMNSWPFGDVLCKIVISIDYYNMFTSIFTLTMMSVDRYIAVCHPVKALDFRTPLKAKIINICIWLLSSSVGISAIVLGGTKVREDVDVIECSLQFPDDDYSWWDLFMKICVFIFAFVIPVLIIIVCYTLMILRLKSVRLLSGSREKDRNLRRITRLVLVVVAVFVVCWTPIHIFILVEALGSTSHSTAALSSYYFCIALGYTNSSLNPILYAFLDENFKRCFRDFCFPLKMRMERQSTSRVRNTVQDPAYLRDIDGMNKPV
Values are log10 of Ki in nM.

Return reported log10(Ki); argument: `O=C(NCCCCc1ccccc1)c1ccc2[nH]c3c(c2c1)C[C@@]1(O)C2Cc4ccc(O)c5c4[C@@]1(CCN2CC1CC1)[C@H]3O5`
0.79

---

Test system Kappa-type opioid receptor (Homo sapiens), Ki listed for each of the compounds.
Write the answer as a number in nM, unit excluded.

Report Ki for `CCCNC(=N)Cc1ccc2[nH]c3c(c2c1)C[C@@]1(O)C2Cc4ccc(O)c5c4[C@@]1(CCN2CC1CC1)[C@H]3O5` please.
1.6

Same thing, different compound: `CCCCCCCNC(=N)Cc1ccc2[nH]c3c(c2c1)C[C@@]1(O)C2Cc4ccc(O)c5c4[C@@]1(CCN2CC1CC1)[C@H]3O5`
5.61

Continuing:
# input compound: `CCC(=N)NCCc1ccc2[nH]c3c(c2c1)C[C@@]1(O)C2Cc4ccc(O)c5c4[C@@]1(CCN2CC1CC1)[C@H]3O5` ; wanted: its Ki
0.28

# iterate: `O=C(NCc1ccccc1)c1ccc2[nH]c3c(c2c1)C[C@@]1(O)C2Cc4ccc(O)c5c4[C@@]1(CCN2CC1CC1)[C@H]3O5`
10.3

---

Catalogue of Ke readings, one per entry.
# test_target: Delta-type opioid receptor (Homo sapiens, UniProt P41143)
# Sequence (P41143 whole entry): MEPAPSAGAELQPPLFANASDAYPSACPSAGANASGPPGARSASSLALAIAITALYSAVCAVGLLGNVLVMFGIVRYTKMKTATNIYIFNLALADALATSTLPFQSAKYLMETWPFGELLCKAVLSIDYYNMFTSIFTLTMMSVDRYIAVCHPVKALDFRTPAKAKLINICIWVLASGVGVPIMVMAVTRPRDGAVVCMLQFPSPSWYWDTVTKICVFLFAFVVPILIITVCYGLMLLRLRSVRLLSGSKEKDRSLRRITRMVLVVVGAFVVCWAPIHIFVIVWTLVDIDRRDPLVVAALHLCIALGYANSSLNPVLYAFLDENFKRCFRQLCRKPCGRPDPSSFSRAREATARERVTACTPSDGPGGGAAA
# assay_context: CHO
# Description: Ability to displace DPDPE from human recombinant Opioid receptor delta 1 in CHO cells using [35S]- GTP-gamma S Assay
Numeric only. Scale: nM

Consider the compound shown here: `O=C(NCc1ccccc1)c1ccc2[nH]c3c(c2c1)C[C@@]1(O)C2Cc4ccc(O)c5c4[C@@]1(CCN2CC1CC1)[C@H]3O5` What is its recorded Ke?
2.99

Record: `CCCCC/N=C(\N)Cc1ccc2[nH]c3c(c2c1)C[C@@]1(O)C2Cc4ccc(O)c5c4[C@@]1(CCN2CC1CC1)[C@H]3O5`
3.83

And the next one, `O=C(NCCCCc1ccccc1)c1ccc2[nH]c3c(c2c1)C[C@@]1(O)C2Cc4ccc(O)c5c4[C@@]1(CCN2CC1CC1)[C@H]3O5` ?
5.15

How about `CCCC(=O)NCCc1ccc2[nH]c3c(c2c1)C[C@@]1(O)C2Cc4ccc(O)c5c4[C@@]1(CCN2CC1CC1)[C@H]3O5` ?
0.3

Next up: `O=C(NCCc1ccccc1)c1ccc2[nH]c3c(c2c1)C[C@@]1(O)C2Cc4ccc(O)c5c4[C@@]1(CCN2CC1CC1)[C@H]3O5`
1.21

Further cases:
Returns the measured Ke for the input compound. Input: `CCC(=O)NCCc1ccc2[nH]c3c(c2c1)C[C@@]1(O)C2Cc4ccc(O)c5c4[C@@]1(CCN2CC1CC1)[C@H]3O5`
0.38

Entry `CCCCC(=O)NCCc1ccc2[nH]c3c(c2c1)C[C@@]1(O)C2Cc4ccc(O)c5c4[C@@]1(CCN2CC1CC1)[C@H]3O5` please
0.23

---

# test_target: Mu-type opioid receptor (Homo sapiens)
# Sequence (P35372 whole entry): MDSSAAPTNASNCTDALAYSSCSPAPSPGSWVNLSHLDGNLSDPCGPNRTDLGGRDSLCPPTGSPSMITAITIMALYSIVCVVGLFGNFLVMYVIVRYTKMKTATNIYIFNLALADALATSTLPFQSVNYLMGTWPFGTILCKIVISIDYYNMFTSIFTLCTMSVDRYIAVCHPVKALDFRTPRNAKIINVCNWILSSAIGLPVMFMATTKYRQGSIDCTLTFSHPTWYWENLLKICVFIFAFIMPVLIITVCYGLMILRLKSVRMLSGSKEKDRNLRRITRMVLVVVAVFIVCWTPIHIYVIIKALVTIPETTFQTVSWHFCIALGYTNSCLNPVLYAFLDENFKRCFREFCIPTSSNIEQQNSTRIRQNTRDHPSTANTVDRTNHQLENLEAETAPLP
# assay_context: CHO
# Description: Ability to displace DAMGO from human recombinant Opioid receptor mu 1 in CHO cells using [35S]- GTP-gamma S Assay
result_type: Ke
Record the result as a number with its unit.

Examples from the recorded data:
Can you share its Ke? I mean this compound: `O=C(NCCc1ccccc1)c1ccc2[nH]c3c(c2c1)C[C@@]1(O)C2Cc4ccc(O)c5c4[C@@]1(CCN2CC1CC1)[C@H]3O5`
2.7 nM

Next compound: `CCCCC(=O)NCCc1ccc2[nH]c3c(c2c1)C[C@@]1(O)C2Cc4ccc(O)c5c4[C@@]1(CCN2CC1CC1)[C@H]3O5`
3.37 nM

What do we get for `CCCCCCNC(=O)NCCc1ccc2[nH]c3c(c2c1)C[C@@]1(O)C2Cc4ccc(O)c5c4[C@@]1(CCN2CC1CC1)[C@H]3O5` ?
1.79 nM

One more compound: `O=C(NCCCCc1ccccc1)c1ccc2[nH]c3c(c2c1)C[C@@]1(O)C2Cc4ccc(O)c5c4[C@@]1(CCN2CC1CC1)[C@H]3O5`
2.78 nM

Pending compound:
Value lookup for Ke; key = `CC(=N)NCCc1ccc2[nH]c3c(c2c1)C[C@@]1(O)C2Cc4ccc(O)c5c4[C@@]1(CCN2CC1CC1)[C@H]3O5`
3.78 nM

---

# test_target: Delta-type opioid receptor (Homo sapiens, UniProt P41143)
# protocol_text: Ability to displace [3H]DPDPE from human recombinant Opioid receptor delta 1 in CHO cells
result_type: Ki (nM)
Field: numeric (nM). Do not append units.

// worked examples, Ki included
Fill blank: measured Ki of the molecule `CCCCCCNC(=O)NCCc1ccc2[nH]c3c(c2c1)C[C@@]1(O)C2Cc4ccc(O)c5c4[C@@]1(CCN2CC1CC1)[C@H]3O5` is ____.
2.25

What about this molecule? `CCCCCCCNC(=O)c1ccc2[nH]c3c(c2c1)C[C@@]1(O)C2Cc4ccc(O)c5c4[C@@]1(CCN2CC1CC1)[C@H]3O5`
70.2

Next entry: `CCCCCNC(=N)Cc1ccc2[nH]c3c(c2c1)C[C@@]1(O)C2Cc4ccc(O)c5c4[C@@]1(CCN2CC1CC1)[C@H]3O5`
17

Do the same for `COc1ccc(CNC(=O)c2ccc3[nH]c4c(c3c2)C[C@@]2(O)C3Cc5ccc(O)c6c5[C@@]2(CCN3CC2CC2)[C@H]4O6)cc1` please
7.41

Then this molecule: `CCCCC(=N)NCCc1ccc2[nH]c3c(c2c1)C[C@@]1(O)C2Cc4ccc(O)c5c4[C@@]1(CCN2CC1CC1)[C@H]3O5`
38.2

What do you have for `CCC(=O)NCCc1ccc2[nH]c3c(c2c1)C[C@@]1(O)C2Cc4ccc(O)c5c4[C@@]1(CCN2CC1CC1)[C@H]3O5` ?
3.12

Next:
Suppose we examine the molecule `CCCC(=N)NCCc1ccc2[nH]c3c(c2c1)C[C@@]1(O)C2Cc4ccc(O)c5c4[C@@]1(CCN2CC1CC1)[C@H]3O5` ; what Ki value has been reported?
27.6

---

# test_target: Delta-type opioid receptor (Homo sapiens, UniProt P41143)
# assay_context: CHO
result_type: Ke (nM)
Kindly provide the numeric value in nM only, without the unit symbol.

Example compounds with recorded Ke:
Any idea what Ke was measured for `CCC(=N)NCCc1ccc2[nH]c3c(c2c1)C[C@@]1(O)C2Cc4ccc(O)c5c4[C@@]1(CCN2CC1CC1)[C@H]3O5` ?
1.77

Moving on to the next compound: `CCCCCCCNC(=O)c1ccc2[nH]c3c(c2c1)C[C@@]1(O)C2Cc4ccc(O)c5c4[C@@]1(CCN2CC1CC1)[C@H]3O5`
6.95

Further cases:
# query: Ke of entry `CCCCCCC/N=C(\N)Cc1ccc2[nH]c3c(c2c1)C[C@@]1(O)C2Cc4ccc(O)c5c4[C@@]1(CCN2CC1CC1)[C@H]3O5`
5.83

---

# test_target: Delta-type opioid receptor (Homo sapiens)
# protocol_text: Ability to displace [3H]DPDPE from human recombinant Opioid receptor delta 1 in CHO cells
Recorded Ki, one value per entry.
Please reply with the bare figure in nM and do not write the unit itself.

The following compounds have reported results that may help.
Quick one: Ki of `CCCNC(=N)Cc1ccc2[nH]c3c(c2c1)C[C@@]1(O)C2Cc4ccc(O)c5c4[C@@]1(CCN2CC1CC1)[C@H]3O5` ?
5.29

Query `CCCCNC(=O)NCCc1ccc2[nH]c3c(c2c1)C[C@@]1(O)C2Cc4ccc(O)c5c4[C@@]1(CCN2CC1CC1)[C@H]3O5` next
2.6

Queued: `CC(=N)NCCc1ccc2[nH]c3c(c2c1)C[C@@]1(O)C2Cc4ccc(O)c5c4[C@@]1(CCN2CC1CC1)[C@H]3O5`
21.4

Next compound, Ki to be filled in.
Consider the compound shown here: `CCCC(=O)NCCc1ccc2[nH]c3c(c2c1)C[C@@]1(O)C2Cc4ccc(O)c5c4[C@@]1(CCN2CC1CC1)[C@H]3O5` What is its recorded Ki?
3.7

---

Target or system Kappa-type opioid receptor (Homo sapiens, UniProt P41145); recorded quantity Ki.
Use nM as the unit, but write only the number.

Which Ki is reported for this compound? `CCNC(=O)NCCc1ccc2[nH]c3c(c2c1)C[C@@]1(O)C2Cc4ccc(O)c5c4[C@@]1(CCN2CC1CC1)[C@H]3O5`
12.3

Okay, and `CCCCCCCNC(=O)c1ccc2[nH]c3c(c2c1)C[C@@]1(O)C2Cc4ccc(O)c5c4[C@@]1(CCN2CC1CC1)[C@H]3O5` ?
21.9

Also `CCCCCCNC(=O)NCCc1ccc2[nH]c3c(c2c1)C[C@@]1(O)C2Cc4ccc(O)c5c4[C@@]1(CCN2CC1CC1)[C@H]3O5` , if possible.
8.13

Field entry: `CCCC(=N)NCCc1ccc2[nH]c3c(c2c1)C[C@@]1(O)C2Cc4ccc(O)c5c4[C@@]1(CCN2CC1CC1)[C@H]3O5`
0.25

# iterate: `CCCCCNC(=N)Cc1ccc2[nH]c3c(c2c1)C[C@@]1(O)C2Cc4ccc(O)c5c4[C@@]1(CCN2CC1CC1)[C@H]3O5`
1.44

Next:
Item `CCCCC(=O)NCCc1ccc2[nH]c3c(c2c1)C[C@@]1(O)C2Cc4ccc(O)c5c4[C@@]1(CCN2CC1CC1)[C@H]3O5` has what recorded Ki?
0.68

Entry `CC(=N)NCCc1ccc2[nH]c3c(c2c1)C[C@@]1(O)C2Cc4ccc(O)c5c4[C@@]1(CCN2CC1CC1)[C@H]3O5` please
0.29

Another compound to check: `CCCCNC(=O)NCCc1ccc2[nH]c3c(c2c1)C[C@@]1(O)C2Cc4ccc(O)c5c4[C@@]1(CCN2CC1CC1)[C@H]3O5`
6.33
